Compiled from multiple publications: pKi readings for Muscarinic acetylcholine receptor M3 (Homo sapiens, UniProt P20309).
Give bare numbers, as −log10 of the molar value.

The examples below pair each entry with its known result.
* COc1c(CNC[C@H](O)c2ccc(O)c3[nH]c(=O)ccc23)ccc(NC(=O)CCN2CCC(OC(=O)Nc3ccccc3-c3ccccc3)CC2)c1C | 9.30
* CCN(CC)CCC1=C(C(C)c2ccccn2)c2ccccc2C1 (stereo not drawn) | 6.02
* CCCCCCCCCCCC(OC(=O)C(CCCCN(O)C(C)=O)NC(=O)c1coc(-c2ccccc2O)n1)C(C)C(=O)NC1CCCCN(O)C1=O (stereo not drawn) | 6.89
* CS(=O)(=O)Nc1cc([C@@H](O)CNCCCCCCCCCN2CCC(OC(=O)Nc3ccccc3-c3ccccc3)CC2)ccc1O | 9.41
* O=C1CCc2ccccc2N1CCCN1CCC(CCCO)CC1 | 4.93
* C[N+](C)(CCCC(O)(c1ccccc1)c1ccccc1)CC[N+](C)(C)CCCC(O)(c1ccccc1)c1ccccc1 | 4.36

Shift focus to the following entry.
Query for Muscarinic acetylcholine receptor M3 (Homo sapiens, UniProt P20309): what pKi does the record show for "OC(CCCN1CCNCC1)(c1ccccc1)c1ccccc1" ?
6.18

###

Compiled from multiple publications: Ki readings for UniProt:P20309.
Answers are plain numbers, in nM.

- CCOC(=O)N(Cc1ccccc1-c1ccccc1)[C@H]1CCNC1: 635
- Cc1cc(CNC[C@H](O)c2ccc(O)c3[nH]c(=O)ccc23)ccc1N(C)C(=O)CCN1CCC(OC(=O)Nc2ccccc2-c2ccccc2)CC1: 0.2
- C[N+]1(CCCC(O)(c2ccccc2)c2ccccc2)CCCCC1: 275

Query for UniProt:P20309: what Ki does the record show for CN1CCC[C@H]1[C@H]1C[S+]([O-])[C@](c2ccccc2)(C2CCCCC2)O1 (stereo in doubt; (-)-9) ?
347

###

Compiled from multiple publications: pKi readings for Muscarinic acetylcholine receptor M3 (Homo sapiens, UniProt P20309).
Give bare numbers, as −log10 of the molar value.

For the 3 compounds below, give their pKi values.
1. CCCCC1CCN(CCCN2C(=O)CCc3ccccc32)CC1
2. CC(C1=C(CCN(C(C)C)C(C)C)Cc2ccccc21)c1ccccn1 (stereo in doubt; (-)-19)
3. CN(CCN1CCC(OC(=O)Nc2ccccc2-c2ccccc2)CC1)C(=O)c1ccc(CNC[C@H](O)c2ccc(O)c3[nH]c(=O)ccc23)cc1

5.92
5.39
9.10

For the 4 compounds below, give their pKi values.
1. CN(C)CCC1=C(C(C)(C)c2ccccn2)c2ccccc2C1
2. NCCCCCCCCCN1CCC(OC(=O)Nc2ccccc2-c2ccccc2)CC1
3. Cc1c(NC2CC2)nc([C@@H]2C[C@H]2C)nc1N1CCCCCC1
4. CN1CCC=C(c2nsnc2OCCCC2CCN(CCCN3C(=O)CCc4ccccc43)CC2)C1

[7.59, 9.12, 7.49, 7.03]

###

Compiled from multiple publications: pKi readings for Muscarinic acetylcholine receptor M3 (Homo sapiens, UniProt P20309).
pKi: −log10 of the molar value.
Please note: YES applies when pKi is 6 or greater, and NO applies otherwise.

Example entries begin here.
- COc1ccccc1N1CCN(CCCNC(=O)NN(Cc2ccc(F)cc2)c2ccccc2)CC1: NO
- Cc1c(NC2CC2)nc(C2CCCC2)nc1N1CCCCCC1: YES
- COc1ccc(S(=O)(=O)c2ccc(C(C#N)N3CCN(C4CCCCC4)CC3)cc2)cc1 (stereo unspecified): YES
- O=C(CN1CCCc2cnccc21)N1CCCCC1: NO
- O=C(CCN1CCC(OC(=O)Nc2ccccc2-c2ccccc2)CC1)NCCCCCNC[C@H](O)c1ccc(O)c2[nH]c(=O)ccc12: YES
- O=C(CCCNC(=O)CC(c1ccccc1)(c1ccccc1)c1ccccc1)NCCC(=O)NCC1CCCN(CC2CCCCC2)C1 (stereo unspecified): YES
- CN1CCN(CCCC(O)(c2ccccc2)c2ccccc2)CC1: NO
- O=C(CCN1CCCc2ccccc21)NC1CCCC1: NO
- O=C1CCc2ccccc2N1CCCN1CCC(CCCCCO)CC1: NO
- COc1ccc([S+]([O-])c2ccc(C(C)C3CCN(C4CCCCC4)CC3)cc2)cc1 (stereo unspecified): YES

Evaluate "COc1ccc(NC(=O)N2CCN(c3ccc(C(F)(F)F)cc3)CC2)cc1N1CCN(C)CC1" : pKi at minimum 6?
NO

Evaluate "O=C(NC[C@@H]1CCCNC1)[C@H]1CCCN1C(=O)[C@@H]1C[C@@H](O)CN1C(=O)CC(c1ccccc1)(c1ccccc1)c1ccccc1" : pKi at minimum 6?
YES

Evaluate "COc1ccccc1N1CCC(C(=O)Nc2ccc(OC)c(N3CCN(C)CC3)c2)CC1" : pKi at minimum 6?
NO

Evaluate "CC1(C)C(/C=C/C=C/C=C2/N(CCCCCC(=O)NCc3cc(C(=O)NCCN4CCC(N5CCC(n6c(=O)[nH]c7ccccc76)CC5)CC4)cc(C(=O)NCCN4CCN(CCCCC5CCN(CC(=O)N6c7ccccc7NC(=O)c7ccccc76)CC5)CC4)c3)c3ccc(S(=O)(=O)[O-])cc3C2(C)C)=[N+](CCCCS(=O)(=O)O)c2ccccc21.O=C(O)C(F)(F)F.O=C(O)C(F)(F)F.O=C(O)C(F)(F)F.O=C(O)C(F)(F)F" : pKi at minimum 6?
YES

Evaluate CC(C1=C(CCN(C)C)Cc2ccc(Cl)cc21)c1ccccn1 (stereo unspecified) : pKi at minimum 6?
YES
